Molecular target: Uracil-DNA glycosylase (Homo sapiens) (UniProt P13051)
Sequence (P13051 whole entry): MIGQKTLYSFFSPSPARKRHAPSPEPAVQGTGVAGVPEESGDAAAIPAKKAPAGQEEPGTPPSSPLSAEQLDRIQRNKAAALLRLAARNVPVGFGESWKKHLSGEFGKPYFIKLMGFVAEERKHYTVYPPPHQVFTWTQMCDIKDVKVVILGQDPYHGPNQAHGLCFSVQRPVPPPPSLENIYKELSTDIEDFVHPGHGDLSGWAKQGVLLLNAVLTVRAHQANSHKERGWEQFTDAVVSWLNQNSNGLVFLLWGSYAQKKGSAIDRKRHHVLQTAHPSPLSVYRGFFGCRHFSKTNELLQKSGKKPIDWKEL
Conditions: Compound Concentration 10.0 uM, Hit No
Description: Inhibition of UNG by quantifying inhibition of UNG-mediated cleavage and dissociation of quenched duplex DNA oligonucleotides, measured as fluorescence at 594 nm. To generate a functional strand incision and increase turn-over this assay is coupled to APE1.
Please provide measured inhibition for the entries that follow.
Report as a plain number; the unit % is understood.

Lab request: please report inhibition under test system Uracil-DNA glycosylase (Homo sapiens) (UniProt P13051) for CCCC(=O)N[C@@H](Cc1ccc(O)cc1)C(=O)NCCCCCCCNCCCCN;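 further: UNG excision on a quenched double-stranded DNA oligo probe, with APE1 added for strand incision and turnover, read as fluorescence at 594 nm as strands separate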
-4.14

What do you have for COc1cc(-c2cncc(-c3ccc(N4CCN(C(C)C)CC4)cc3)c2C)cc(F)c1C(=O)N1CCCC1 ?
7.27

Try this molecule too: CCc1ccc(OCc2ccccc2C(=O)Nc2ccc3nc(C)cc(N)c3c2)cc1
-2.29

How about this molecule: COc1ccc(CCN(C)CCCC(C#N)(c2cc(OC)c(OC)c(OC)c2)C(C)C)cc1OC (stereo not given)
-3.3

Now give it for O=S1(=O)c2cccc3cccc(c23)N1CCCN1CCN(c2ccc(F)cc2)CC1 too.
-2.78

Thanks! And O=c1cccc2n1C[C@@H]1CNC[C@H]2C1 ?
-3.14

Item: C[C@@H](c1cccc(C#N)c1)n1cc(Cl)cc(C(N)=O)c1=N
3.37

Entry N#CC1(c2ccccn2)CCN(Cc2cc(C(=O)N3CCCC3)c(=O)n3ccccc23)CC1 please
2.35

Try this molecule next: CCn1c(=O)c(C)cn(Cc2nnc(-c3ccc(F)c(O)c3F)s2)c1=O
-4.5

Now this one: CCOC(=O)N1CCC(CN(Cc2ccc(Cl)cc2)Cc2ccc([N+](=O)[O-])s2)C1 (stereo not given)
-1.49
